The measured values listed here are drawn from PubChem BioAssay AID1159580.

test: chemical genetic growth profiling, strain panel (AID 1159580);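 also: tested at 20 µM; growth read once vehicle control cultures reached saturation at 30 °C; 1 = growth at the plate median or of vehicle wells; lower values mean less growth of the strain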; conditions: S. cerevisiae deletion strains, growth OD, locus YGR040W, strain KSS1
Out of some 5,500 compounds screened, about 2,000 (36%) were called active. Another 18% or so got no clear call; they are omitted. Rule as the data show it: active = normalized growth mostly below about 0.91 (no sharp cut-off); inconclusive = no clear call, values can overlap the other calls; inactive = mostly above about 0.92. This is one part of the list.
Outcomes: Yes (active), No (inactive)

* O=C1Nc2ccccc2/C1=C/c1ccc(C(F)(F)F)cc1Cl | No
* OC1(C(F)(F)F)CC(c2ccc3ccccc3c2)=NN1 (configuration not stated) | Yes
* O=[N+]([O-])c1cc(Cl)cc([N+](=O)[O-])c1Nc1ccccc1 | No
* O=C(Nc1ccccc1)Nc1ccc(Cl)cc1[N+](=O)[O-] | No
* Cc1cc(Oc2ccc(C(F)(F)F)cc2NS(C)(=O)=O)cc(C)c1Cl | No
* O=C1Nc2ccccc2/C1=C\c1cccc([N+](=O)[O-])c1 | No
* O=C1/C(=C/c2ccccn2)CCc2ccccc21 | No
* CCOC(=O)N/N=C\c1cc(Cl)cc(Cl)c1O | No
* OC(COc1ccc(F)cc1)(c1ccccc1)c1ccccc1 | No
* O=C(NNc1ccc(F)cc1F)c1sccc1Cl | No
* Cc1ccc(NNC(=O)c2cccs2)cc1Cl | No
* O=C1Nc2ccccc2/C1=C\c1c(Cl)cccc1Cl | No

====

assay: chemical genetic growth profiling, strain panel (AID 1159580); conditions: S. cerevisiae deletion strains, growth OD, locus YER016W, strain bim1, hits give low values
The whole screen tested about 5,500 compounds, of which about 2,000 (36%) were called active. Inconclusive results (about 18%) are left out. This is one part of the list.
Experimental Endpoint: normalized growth

- CC1(C)C(=O)C=C[C@@]2(C)C1CC(=O)[C@]1(C)C2CC[C@@]2(C)[C@H](c3ccoc3)OC(=O)[C@H]3O[C@]321 (some centres not stated): 0.966
- COc1ccc(-c2oc3cc(O[C@H]4O[C@H](CO)[C@@H](O)[C@H](O)[C@H]4O)c(OC)c(O)c3c(=O)c2OC)cc1O: 0.997
- CCOCN(C(=O)CCl)c1c(C)cccc1CC: 0.994
- O=c1cc(-c2ccc(O)cc2)oc2cc(O[C@@H]3O[C@H](CO)[C@@H](O)[C@H](O)[C@H]3O)cc(O)c12: 1.01
- CC(C)(C)NCC(O)c1cc(Cl)c(N)c(Cl)c1 (configuration not stated): 1
- CC1(C)C2CC(=O)[C@]3(C)C(CC[C@@]4(C)[C@H](c5ccoc5)OC(=O)C5OC543)[C@@]2(C)[C@@H](O)C[C@H]1O (some centres not stated): 1.01
- COC(=O)c1c(C)cc(OC)cc1O: 0.984
- O=C1C=C2C(=CCOC2O)O1 (configuration not stated): 0.833
- COc1cc(OC)c2c(=O)c(OC)c(-c3ccc(OC)c(OC)c3)oc2c1: 1.01
- COc1ccc(Cl)cc1C(=O)NCCc1ccc(S(=O)(=O)NC(=O)NC2CCCCC2)cc1: 1
- NC(N)=NC(=O)c1nc(Cl)c(N)nc1N: 1.02
- CC1(C)C(=O)C=C[C@@]2(C)C1C[C@@H](O)[C@]1(C)C2CC[C@@]2(C)[C@H](c3ccoc3)OC(=O)[C@H]3O[C@]321 (some centres not stated): 1
- O=c1c(O)c(-c2ccc(O)c(O)c2)oc2c(O[C@@H]3O[C@H](CO)[C@H](O)[C@@H](O)[C@H]3O)c(O)cc(O)c12: 1.01
- CC(=O)O[C@@H]1CC2C(C)(C)C(=O)C=C[C@]2(C)C2CC[C@@]3(C)[C@H](c4ccoc4)OC(=O)[C@H]4O[C@]43[C@@]21C (some centres not stated): 1
- CC1(C)C=CC(=O)[C@@]2(C)C1CC(=O)[C@]1(C)C2CC[C@@]2(C)[C@H](c3ccoc3)OC(=O)C3OC321 (some centres not stated): 0.985
- COc1ccc(-c2oc3c(CC=C(C)C)c(O[C@@H]4O[C@H](CO)[C@@H](O)[C@H](O)[C@H]4O)cc(O)c3c(=O)c2O[C@@H]2O[C@@H](C)[C@H](O)[C@@H](O)[C@H]2O)cc1: 1.03
- COc1cc(O)c2c(=O)c(O)c(-c3ccc(O)c(O)c3)oc2c1: 0.895

====

experiment: chemical genetic growth profiling, strain panel (AID 1159580);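 also: tested at 20 µM; growth read once vehicle control cultures reached saturation at 30 °C; 1 = growth at the plate median or of vehicle wells; lower values mean less growth of the strain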; settings: S. cerevisiae deletion strains, growth OD, locus YKL085W, strain MDH1 (second series), hits give low values
Hit rate of the full screen: of about 5,500 compounds, about 2,000 (36%) were called active. About 18% were inconclusive and are not listed. The list shows a part of the results.
// classify: if (normalized growth < 1) YES else NO

* CCCCCCCCCCCCCCCCCC(=O)OC(CC(=O)O)C[N+](C)(C)C (configuration not stated) | YES
* CC1O[C@@H](Oc2c(-c3ccc(O)c(O)c3)oc3cc(O)cc(O)c3c2=O)[C@H](O)[C@H](O)[C@H]1O (some centres not stated) | NO

====

experiment: chemical genetic growth profiling, strain panel (AID 1159580);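 also: tested at 20 µM; growth read once vehicle control cultures reached saturation at 30 °C; 1 = growth at the plate median or of vehicle wells; lower values mean less growth of the strain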; details: S. cerevisiae deletion strains, growth OD, locus YNR049C, strain mso1
In all, about 5,500 compounds went through this assay and about 2,000 (36%) were called active. Roughly 18% stayed inconclusive and do not appear here. Cut-off read from the data, not from the text of the source: active = normalized growth mostly below about 0.91 (no sharp cut-off); inconclusive = no clear call, values can overlap the other calls; inactive = mostly above about 0.92. The list shows a part of the results.
Labels: active, inactive

* CCC(c1ccc(O)cc1)C(CC)c1ccc(O)cc1 (centres undefined) | inactive
* COC1=CC(=O)C(O)=C/C1=C\C=C\c1ccccc1 | active
* C[C@]12CCC3c4ccc(O)cc4CCC3C1CC[C@@H]2O (some centres undefined) | inactive
* CC[n+]1c(-c2ccccc2)c2cc(N)ccc2c2ccc(N)cc21 | inactive
* C=C1CCC2(OC1)OC1CC3C4CC=C5CC(O)CC(O)C5(C)C4CCC3(C)C1C2C (centres undefined) | inactive
* COC1=CC(=O)C(C(=O)c2ccccc2)=CC1=O | inactive
* C=C[C@H]1CN2CC[C@H]1C[C@@H]2[C@@H](OC(=O)OCC)c1ccnc2ccc(OC)cc12 | inactive
* O=C(Cc1cccs1)NC1C(=O)N2C(C(=O)[O-])=C(C[n+]3ccccc3)CSC12 (centres undefined) | inactive
* C[C@@H]1CC[C@@]2(NC1)O[C@H]1C[C@H]3C4CC=C5C[C@@H](O)CC[C@]5(C)C4CC[C@]3(C)C1[C@@H]2C (some centres undefined) | active
* CC1CC[C@@]2(OC1)O[C@H]1CC3C4CC[C@@H]5C[C@@H](O)CC[C@]5(C)C4CC[C@]3(C)[C@H]1[C@@H]2C (some centres undefined) | inactive
* CC/C(=C(/CC)c1ccc(O)cc1)c1ccc(O)cc1 | inactive
* CC(=O)OCC1=C(C(=O)O)N2C(=O)[C@@H](NC(=O)Cc3cccs3)[C@H]2SC1 | inactive
* COc1ccccc1/C=C\C(=O)O | inactive
* CC1CCC2(OC1)OC1CC3C4CC[C@H]5C[C@@H](O)CC[C@]5(C)C4CC(=O)[C@]3(C)C1C2C (some centres undefined) | inactive
* O=C1C=C2C(=CCOC2O)O1 (centres undefined) | active
* C[C@@H]1CC[C@@]2(OC1)O[C@H]1CC3C4CC[C@H]5C[C@@H](O)CC[C@]5(C)C4CC[C@]3(C)[C@H]1[C@@H]2C (some centres undefined) | inactive
* CN[C@@H]1C(O)[C@@H](O[C@@H]2[C@@H](O)[C@H](O[C@H]3OC(CN)=CC[C@H]3N)[C@@H](N)C[C@H]2N)OC[C@]1(C)O (some centres undefined) | inactive
* C[C@@H]1CC[C@@]2(OC1)OC1CC3C4CC=C5C[C@@H](O)CC[C@]5(C)C4CC[C@]3(C)C1[C@@H]2C (some centres undefined) | inactive
* CCC1OC(=O)[C@H](C)C(=O)[C@H](C)[C@@H](OC2O[C@H](C)C[C@H](N(C)C)[C@H]2O)[C@](C)(OC)C2(CCCn3cnc(-c4cccnc4)c3)C[C@@H](C)C(=O)[C@H](C)[C@H]3N(C2)C(=O)O[C@]13C (some centres undefined) | inactive

====

test: chemical genetic growth profiling, strain panel (AID 1159580);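 also: tested at 20 µM; growth read once vehicle control cultures reached saturation at 30 °C; 1 = growth at the plate median or of vehicle wells; lower values mean less growth of the strain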; conditions: S. cerevisiae deletion strains, growth OD, locus YDR195W, strain ref2
The whole screen tested about 5,500 compounds, of which about 2,000 (36%) were called active. Another 18% or so got no clear call; they are omitted. The list shows a part of the results.
Experimental Endpoint: normalized growth

• COC(=O)c1c(C)cc(O)cc1O = 1.05
• COC(=O)c1c(C)cc(OC)cc1O = 1.03
• COc1cc(OC)c2c(=O)c(O)c(-c3ccc(OC)c(OC)c3)oc2c1 = 0.984
• COc1cc(OC)c2c(=O)c(OC)c(-c3ccc(OC)c(OC)c3)oc2c1 = 1.04
• CCN(Cc1ccncc1)C(=O)C(CO)c1ccccc1 (stereo unspecified) = 1.02
• COc1cc(O)c2c(=O)c(O)c(-c3ccc(O)c(O)c3)oc2c1 = 1.02
